Data provenance: patent US20250277059A1

# System Tested: T1, Human TMPRSS2 recombinant protein, extracellular region (N-terminal His tag, C-terminal Strep-tag II) (human, UniProt O15393 106-492)
# T1 construct: also called Human TMPRSS2 recombinant proteins; extracellular region of human TMPRSS2
# T1 sequence (O15393 other isoform, or with tags, fused parts or gaps limits assumed): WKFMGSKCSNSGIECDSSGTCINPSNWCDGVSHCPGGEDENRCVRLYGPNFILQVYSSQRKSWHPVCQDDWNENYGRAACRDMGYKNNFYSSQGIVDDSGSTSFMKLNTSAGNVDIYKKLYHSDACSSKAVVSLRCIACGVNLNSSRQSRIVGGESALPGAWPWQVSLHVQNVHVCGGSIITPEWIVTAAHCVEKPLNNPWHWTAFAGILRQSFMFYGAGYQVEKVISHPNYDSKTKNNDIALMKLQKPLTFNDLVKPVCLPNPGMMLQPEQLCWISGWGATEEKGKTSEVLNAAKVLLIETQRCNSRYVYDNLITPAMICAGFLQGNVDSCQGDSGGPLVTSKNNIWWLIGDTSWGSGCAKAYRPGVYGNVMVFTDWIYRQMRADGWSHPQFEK
# Assay Text: SPR (BIACore)
Consider the following binders; for each one, report its log10 of kon.
// units: M⁻¹ s⁻¹ (pre-log); metric: kon; scale: log10

Some solved entries appear below for comparison.
Binder: humanized 752-1 IgG4 (S108P) prototype #3 (antibody, V domains shown, also called humanized #3; hu #3) VH: QVQLQQSGTGLARPGASVKLSCKASGYTFTSCGISWVTQRAGQGLEWIGEIYPRGGNTYYNEKFKGKATLTADKSSSSAYMELRGLTAEDSAVYFCARENGNYDPLFAYWGQGTTLTVSS VL: DIQMTQSPSSLSASVGDRVTITCKASQDINKYIAWYQQKPGKAPKLLIYYTSTLQPGVPSRFSGSGSGTDFTFTISSLQPEDIATYYCLQYYNLWTFGGGTKVEIK
log10 of kon: 6.35
--
Binder: humanized 2228-15 IgG4 (S108P) prototype #1 (antibody, V domains shown, also called humanized #1; hu #1) VH: QVQLVQSGAEVKKPGASVKVSCKASGYTFTDYYINWVRQAPGQGLEWMGWIFPGSGSSYYNAIFKGRVTMTRDTSISTAYMELSRLRSDDTAVYYCARGDFGNFGGFFTYWGQGTLVTVSS VL: DVVMTQSPLSLPVTLGQPASISCRASKSVSTSGYSFMHWFQQRPGQSPRRLIYLASNLESGVPDRFSGSGSGTDFTLKISRVEAEDVGVYYCQHSRELPLTFGGGTKVEIK
log10 of kon: 6.72
--
Binder: humanized 752-1 IgG4 (S108P) prototype #2 (antibody, V domains shown, also called humanized #2; hu #2) VH: QVQLVQSGAEVKKPGASVKVSCKASGYTFTSCGISWVRQAPGQGLEWMGEIYPRGGNTYYNEKFKGRVTMTTDTSTSTAYMELRSLRSDDTAVYYCARENGNYDPLFAYWGQGTLVTVSS VL: DIQMTQSPSSLSASVGDRVTITCKASQDINKYIAWYQQKPGKAPKLLIHYTSTLQPGVPSRFSGSGSGTDFTFTISSLQPEDIATYYCLQYYNLWTFGGGTKVEIK
log10 of kon: 6.05
--
Binder: humanized 752-1 IgG4 (S108P) prototype #4 (antibody, V domains shown, also called humanized #4; hu #4) VH: QVQLQQSGTGLARPGASVKLSCKASGYTFTSCGISWVTQRAGQGLEWIGEIYPRGGNTYYNEKFKGKATLTADKSSSSAYMELRGLTAEDSAVYFCARENGNYDPLFAYWGQGTTLTVSS VL: DIQMTQSPSSLSASVGDRVTITCKASQDINKYIAWYQQKPGKAPKLLIHYTSTLQPGVPSRFSGSGSGTDFTFTISSLQPEDIATYYCLQYYNLWTFGGGTKVEIK
log10 of kon: 6.40
--
Binder: humanized 752-1 IgG4 (S108P) prototype #1 (antibody, V domains shown, also called humanized #1; hu #1) VH: QVQLVQSGAEVKKPGASVKVSCKASGYTFTSCGISWVRQAPGQGLEWMGEIYPRGGNTYYNEKFKGRVTMTTDTSTSTAYMELRSLRSDDTAVYYCARENGNYDPLFAYWGQGTLVTVSS VL: DIQMTQSPSSLSASVGDRVTITCKASQDINKYIAWYQQKPGKAPKLLIYYTSTLQPGVPSRFSGSGSGTDFTFTISSLQPEDIATYYCLQYYNLWTFGGGTKVEIK
log10 of kon: 5.61
--
Binder: humanized 2228-15 IgG4 (S108P) prototype #4 (antibody, V domains shown, also called humanized #4; hu #4) VH: EIQLVQSGAEVKKPGSSVKVSCKASGYTFTDYYINWMRQAPGQGLEWIGWIFPGSGSSYYNAIFKGRATLTVDTSTNTAYMELSSLRSEDTAFYFCARGDFGNFGGFFTYWGQGTLVTVSS VL: DIVMTQSPDSLAVSLGERATINCRASKSVSTSGYSFMHWYQQKPGQPPKLLIYLASNLESGVPDRFSGSGSGTDFTLTIRPLQAEDVAVYYCQHSRELPLTFGQGTKLEIK
log10 of kon: 6.16

// switching to the query binder
The reported log10 of kon of the binder humanized 2228-15 IgG4 (S108P) prototype #3 (antibody, V domains shown, also called humanized #3; hu #3) VH: EIQLVQSGAEVKKPGSSVKVSCKASGYTFTDYYINWMRQAPGQGLEWIGWIFPGSGSSYYNAIFKGRATLTVDTSTNTAYMELSSLRSEDTAFYFCARGDFGNFGGFFTYWGQGTLVTVSS VL: DVVMTQSPLSLPVTLGQPASISCRASKSVSTSGYSFMHWFQQRPGQSPRRLIYLASNLESGVPDRFSGSGSGTDFTLKISRVEAEDVGVYYCQHSRELPLTFGGGTKVEIK was 5.92
